# Tested on: U2OS
# PROTOCOL_TEXT: Multiplex assay against U2OS
# Format: toxicity, cell-based
# EXPERIMENTAL_SETUP: human, 12 h, 10 µM, compound concentration 10 uM, replicate 1
Decide using Population Mitochondria Different-Phenotype (%) alone. Strictly below 2%: Fulfilled. Equal to or above 2%: Not fulfilled.

1. NCCc1cn(S(=O)(=O)c2c(Cl)nc3sccn23)c2ccccc12.O=C(O)C(=O)O    Not fulfilled
2. Cc1cnc(-c2cc(N3CCN(C(=O)CCS(C)(=O)=O)CC3)ncc2Cl)c(C)c1    Not fulfilled
3. CN1CCN(c2cc(-c3ccccc3)nc(N)n2)CC1    Not fulfilled
4. COC[C@@H](c1ccc(C(F)(F)F)cc1)N1CCN(C2(C)CCN(C(=O)c3c(C)ncnc3C)CC2)C[C@@H]1C.O=C(O)/C=C\C(=O)O [VICRIVIROC MALEATE]    Not fulfilled
5. Cc1onc(-c2ccccc2Cl)c1C(=O)N(C)c1ccc(Cl)cc1    Not fulfilled
6. CCc1cc2cc(NS(=O)(=O)c3ccc(C#N)cc3)ccc2n(CC)c1=O    Not fulfilled
7. Cl.NCCc1ccc(O)c(O)c1 [DOPAMINE HYDROCHLORIDE]    Fulfilled
8. CC(=O)Nc1cccc2c1c(Sc1ccc(Cl)cc1)c(C)n2CC(=O)O    Fulfilled
9. CC[C@@H](C)Nc1nc(C)nc2c(-c3ccc(OC)nc3C)c(C)nn12    Fulfilled
10. O=C(NCCN1CCC(n2c(=O)[nH]c3cc(Cl)ccc32)CC1)c1ccc(F)cc1 [HALOPEMIDE]    Not fulfilled
